system: BxPC-3 cells; assay: MitoTracker Red, mitochondria membrane potential; assay type: cell-based, human; settings: BxPC-3, 48 h incubation, 0.5IC50, ± SD
Exercise: state measured mean percentage of control group fluorescence intensity (MMP) for each of the compounds provided.
Could you give me the number in %? Just the number is fine.

Looking up Cc1nn(-c2ccc(S(=O)(=O)N3CCN(C)CC3)cc2)c2nn3nnnc3nc12 [MM137] , I found its mean percentage of control group fluorescence intensity (MMP) recorded as 84.62

Looking up Cc1nn(-c2ccc(S(=O)(=O)N3CCCCC3)cc2)c2nn3nnnc3nc12 [MM139] , I found its mean percentage of control group fluorescence intensity (MMP) recorded as 76.9

Looking up Cc1nn(-c2ccc(S(=O)(=O)N3CCOCC3)cc2)c2nn3nnnc3nc12 [MM136] , I found its mean percentage of control group fluorescence intensity (MMP) recorded as 69.08

Looking up Cc1nn(-c2ccc(S(=O)(=O)NCCN3CCOCC3)cc2)c2nn3nnnc3nc12 [MM134] , I found its mean percentage of control group fluorescence intensity (MMP) recorded as 79.98
